testTarget: OR2W1 S109A (Homo sapiens, UniProt Q9Y3N9, S109A)
Construct: 39aa rho-tag; expressed in transfected cells; host or cells: NxG 108CC15 or HEK-293 cells
Sequence (Q9Y3N9 whole entry S109A): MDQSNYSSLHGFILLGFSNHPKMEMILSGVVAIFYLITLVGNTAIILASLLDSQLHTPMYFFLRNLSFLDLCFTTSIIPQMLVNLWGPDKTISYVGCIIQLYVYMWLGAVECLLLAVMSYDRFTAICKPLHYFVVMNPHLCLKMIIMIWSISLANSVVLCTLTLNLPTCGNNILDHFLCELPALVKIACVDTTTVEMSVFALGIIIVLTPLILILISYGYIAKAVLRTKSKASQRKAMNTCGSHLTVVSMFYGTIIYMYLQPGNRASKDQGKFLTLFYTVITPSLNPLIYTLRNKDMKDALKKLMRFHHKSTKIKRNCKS
testMethodNotes: GloSensor assay, OR2W1 S109A
Assay type: cell-based
cond: EC50 in the absence of Cu^2+
quantityMeasured: EC50 (µM)
Number only, in µM; omit the unit.

Inquiry: So what does the record say about EC50 for C=CCOC(=O)Cc1ccccc1 [Allyl phenyl acetate, allyl phenyl acetate] ?
Reply text: 46

###

testTarget: OR2M3 wt (Homo sapiens)
Construct: full-length gene-specific forward and reverse primers were added; 39aa rho-tag; expressed in transfected cells; host or cells: NxG 108CC15 or HEK-293 cells
Sequence (Q8NG83 whole entry): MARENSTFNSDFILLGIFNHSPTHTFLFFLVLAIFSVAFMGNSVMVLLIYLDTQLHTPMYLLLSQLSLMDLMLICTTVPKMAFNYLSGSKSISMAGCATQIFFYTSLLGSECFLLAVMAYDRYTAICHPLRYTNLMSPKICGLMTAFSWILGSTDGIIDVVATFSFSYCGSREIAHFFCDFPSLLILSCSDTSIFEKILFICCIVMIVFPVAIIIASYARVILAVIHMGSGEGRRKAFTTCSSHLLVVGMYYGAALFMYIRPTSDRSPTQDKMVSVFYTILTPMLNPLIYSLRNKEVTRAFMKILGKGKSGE
testMethodNotes: cAMP-luminescence GloSensor assay, recombinant OR2M3 wt
Assay type: cell-based
cond: OR2M3 wt; copper concentration 60 µmol; read-out: EC50
quantityMeasured: EC50 (nM)
Number only, in nM; omit the unit.

Inquiry: So what does the record say about EC50 for CCC(S)C(C)CO (stereo not shown) ?
Reply text: 1470
